Measured On: GST-Nv-NF-kB (Ser allele) (Nematostella vectensis, UniProt A7UNT2 2-411)
Sequence: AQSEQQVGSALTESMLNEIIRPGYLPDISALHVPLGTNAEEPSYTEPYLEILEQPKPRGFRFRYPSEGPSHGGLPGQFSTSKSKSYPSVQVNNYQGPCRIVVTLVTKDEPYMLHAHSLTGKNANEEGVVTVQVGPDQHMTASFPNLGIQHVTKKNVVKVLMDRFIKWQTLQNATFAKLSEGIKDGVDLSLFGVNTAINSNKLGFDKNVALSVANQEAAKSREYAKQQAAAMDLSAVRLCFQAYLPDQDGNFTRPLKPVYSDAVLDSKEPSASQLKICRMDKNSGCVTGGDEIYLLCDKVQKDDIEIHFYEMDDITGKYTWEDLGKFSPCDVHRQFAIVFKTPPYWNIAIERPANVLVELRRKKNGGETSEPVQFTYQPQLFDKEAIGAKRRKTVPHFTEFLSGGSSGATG
Experiment Notes: protein-binding microarray (PBM); PBM: ~300 nM protein, 6 mM HEPES pH 7.8, 80 mM KCl, 0.5 mM EDTA, 0.5 mM EGTA, 6% glycerol, 35 ng/ul poly-dIdC, 1% milk, 1 h, room temperature; high values mean tight binding
Run Conditions: dsDNA, one strand shown
Reported binding signal by item:
Entry rule: numbers only, all in z-score.

Would you please look over these solved cases?
Seq String: CCGATTAACATCAGGAGAATCCCTGATGTTAATCGGGTCTTGATTCGCTTGACGCTGCTG
binding signal / z-score: 1.07
//
Seq String: CCGATTAACATCAATATAGTCCCTGATGTTAATCGGGTCTTGATTCGCTTGACGCTGCTG
binding signal / z-score: 4.68
//
Seq String: CCGATTAACATCACCGAATTTGGTGATGTTAATCGGGTCTTGATTCGCTTGACGCTGCTG
binding signal / z-score: 1.14

Query: Endpoint output: binding signal of CCGATTAACATCAGGGGCTTACCTGATGTTAATCGGGTCTTGATTCGCTTGACGCTGCTG . Value?
Result: 3.61

Query: Same question for CCGATTAACATCAATATACCCCCTGATGTTAATCGGGTCTTGATTCGCTTGACGCTGCTG please.
Result: 5.46

Query: // same read-out, input: CCGATTAACATCAAGGATTTCCCTGATGTTAATCGGGTCTTGATTCGCTTGACGCTGCTG
Result: 6.13

Query: Try this sequence too: CCGATTAACATCAAAGAGCCCCCTGATGTTAATCGGGTCTTGATTCGCTTGACGCTGCTG
Result: 3.77

====

Measured On: GST-Nv-NF-kB (Ser allele) (Nematostella vectensis, UniProt A7UNT2 2-411)
Sequence: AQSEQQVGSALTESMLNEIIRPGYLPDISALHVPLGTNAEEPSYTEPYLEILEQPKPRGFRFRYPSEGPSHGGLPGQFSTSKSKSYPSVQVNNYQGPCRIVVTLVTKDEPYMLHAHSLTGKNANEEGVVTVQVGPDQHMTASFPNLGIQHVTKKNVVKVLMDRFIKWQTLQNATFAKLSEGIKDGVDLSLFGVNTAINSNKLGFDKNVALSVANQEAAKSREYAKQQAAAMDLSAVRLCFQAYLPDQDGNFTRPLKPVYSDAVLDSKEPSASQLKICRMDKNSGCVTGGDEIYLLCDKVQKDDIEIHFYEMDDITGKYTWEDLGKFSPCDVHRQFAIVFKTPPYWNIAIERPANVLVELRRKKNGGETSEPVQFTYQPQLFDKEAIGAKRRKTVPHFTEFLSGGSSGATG
Experiment Notes: protein-binding microarray (PBM); PBM: ~300 nM protein, 6 mM HEPES pH 7.8, 80 mM KCl, 0.5 mM EDTA, 0.5 mM EGTA, 6% glycerol, 35 ng/ul poly-dIdC, 1% milk, 1 h, room temperature; high values mean tight binding
Run Conditions: dsDNA, one strand shown
Quick rule for you: binding signal at 4 z-score or higher means True, lower means False.

Seq String: CCGATTAACATCAAAATTCCCGTTGATGTTAATCGGGTCTTGATTCGCTTGACGCTGCTG
Assigned Class: True
--
Seq String: CCGATTAACATCAGGTATTTTTATGATGTTAATCGGGTCTTGATTCGCTTGACGCTGCTG
Assigned Class: False
--
Seq String: CCGATTAACATCAGGGAAAATGATGATGTTAATCGGGTCTTGATTCGCTTGACGCTGCTG
Assigned Class: True
--
Seq String: CCGATTAACATCACTTCCCCCCATGATGTTAATCGGGTCTTGATTCGCTTGACGCTGCTG
Assigned Class: True
--
Seq String: CCGATTAACATCAAAAAAAGTCCTGATGTTAATCGGGTCTTGATTCGCTTGACGCTGCTG
Assigned Class: False
--
Seq String: CCGATTAACATCAAAAAGCCCCGTGATGTTAATCGGGTCTTGATTCGCTTGACGCTGCTG
Assigned Class: True
--
Seq String: CCGATTAACATCAGGGATTCACCTGATGTTAATCGGGTCTTGATTCGCTTGACGCTGCTG
Assigned Class: True
--
Seq String: CCGATTAACATCACTAAACCCCCTGATGTTAATCGGGTCTTGATTCGCTTGACGCTGCTG
Assigned Class: True

Query: Could you verify whether the entry CCGATTAACATCAGGGGATCCCATGATGTTAATCGGGTCTTGATTCGCTTGACGCTGCTG shows binding signal of no less than 4 z-score?
Result: True

Query: For CCGATTAACATCAGTACCGCGAATGATGTTAATCGGGTCTTGATTCGCTTGACGCTGCTG then?
Result: False

Query: Quick one: CCGATTAACATCAGGCGATTCCCTGATGTTAATCGGGTCTTGATTCGCTTGACGCTGCTG
Result: False

Query: // same read-out, input: CCGATTAACATCACTAAATTCCCTGATGTTAATCGGGTCTTGATTCGCTTGACGCTGCTG
Result: True

====

Measured On: GST-Hu-p50 (Homo sapiens, UniProt P19838 7-356)
Sequence (P19838 7-356): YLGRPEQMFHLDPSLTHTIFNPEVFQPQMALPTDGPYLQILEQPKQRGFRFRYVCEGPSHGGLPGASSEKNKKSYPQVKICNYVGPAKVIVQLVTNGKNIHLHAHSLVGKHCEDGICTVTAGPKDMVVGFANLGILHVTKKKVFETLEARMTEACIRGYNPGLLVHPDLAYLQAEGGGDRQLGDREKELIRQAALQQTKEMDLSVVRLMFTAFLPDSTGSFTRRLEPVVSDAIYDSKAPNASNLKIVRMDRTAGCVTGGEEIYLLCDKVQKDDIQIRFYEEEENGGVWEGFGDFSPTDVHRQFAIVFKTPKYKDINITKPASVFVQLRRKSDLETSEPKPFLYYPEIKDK
Experiment Notes: protein-binding microarray (PBM); PBM: ~300 nM protein, 6 mM HEPES pH 7.8, 80 mM KCl, 0.5 mM EDTA, 0.5 mM EGTA, 6% glycerol, 35 ng/ul poly-dIdC, 1% milk, 1 h, room temperature; high values mean tight binding
Run Conditions: dsDNA, one strand shown
binding signal by entry:

Answered cases to consult:
Seq String: CCGATTAACATCAGATACCCCCCTGATGTTAATCGGGTCTTGATTCGCTTGACGCTGCTG
binding signal: 4.1 z-score

Seq String: CCGATTAACATCAGGGGCACCCCTGATGTTAATCGGGTCTTGATTCGCTTGACGCTGCTG
binding signal: 3.94 z-score

Seq String: CCGATTAACATCACCCCATCTCGTGATGTTAATCGGGTCTTGATTCGCTTGACGCTGCTG
binding signal: 1.44 z-score

Seq String: CCGATTAACATCAAATATTTCCCTGATGTTAATCGGGTCTTGATTCGCTTGACGCTGCTG
binding signal: 4.62 z-score

Seq String: CCGATTAACATCAGGGGGGGTCATGATGTTAATCGGGTCTTGATTCGCTTGACGCTGCTG
binding signal: 3.32 z-score

Query: Name the reported binding signal value associated with the sequence CCGATTAACATCACAAAAATCCCTGATGTTAATCGGGTCTTGATTCGCTTGACGCTGCTG
Result: 5.26 z-score

====

Measured On: GST-Hu-p50 (Homo sapiens, UniProt P19838 7-356)
Experiment Notes: protein-binding microarray (PBM); PBM: ~300 nM protein, 6 mM HEPES pH 7.8, 80 mM KCl, 0.5 mM EDTA, 0.5 mM EGTA, 6% glycerol, 35 ng/ul poly-dIdC, 1% milk, 1 h, room temperature; Ap Aiptasia and Nv Nematostella (sea anemones) / Co Capsaspora / Aq Amphimedon (sponge) / Dm Drosophila / Hu human; RHD is the Rel homology domain; high values mean tight binding
Run Conditions: dsDNA, one strand shown
Classify by measured binding signal: MET if it is equal to or exceeds 2 z-score, NOT MET if it is smaller.

Record excerpt, results attached:
Seq String: CCGATTAACATCACAAAACTCCCTGATGTTAATCGGGTCTTGATTCGCTTGACGCTGCTG
Assigned Class: MET
--
Seq String: CCGATTAACATCAAAACTTCCCATGATGTTAATCGGGTCTTGATTCGCTTGACGCTGCTG
Assigned Class: MET
--
Seq String: CCGATTAACATCAATTGCCCCCCTGATGTTAATCGGGTCTTGATTCGCTTGACGCTGCTG
Assigned Class: MET
--
Seq String: CCGATTAACATCACAGTACCCCCTGATGTTAATCGGGTCTTGATTCGCTTGACGCTGCTG
Assigned Class: MET
--
Seq String: CCGATTAACATCAGGACAGTCCCTGATGTTAATCGGGTCTTGATTCGCTTGACGCTGCTG
Assigned Class: MET

Query: Quick check: does CCGATTAACATCAATTCCCAACATGATGTTAATCGGGTCTTGATTCGCTTGACGCTGCTG have binding signal greater than or equal to 2 z-score?
Result: NOT MET

Query: Continue with CCGATTAACATCACGTGTTTCCCTGATGTTAATCGGGTCTTGATTCGCTTGACGCTGCTG
Result: NOT MET

Query: Okay, and CCGATTAACATCAATCGTCCCCCTGATGTTAATCGGGTCTTGATTCGCTTGACGCTGCTG ?
Result: MET
